measurement.description: NCI Yeast Anticancer Drug Screen. Data for the rad50 strain (AID 155);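 also: 0% = growth of vehicle-only cultures of the same strain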
condition.parameters: S. cerevisiae rad50 strain growth inhibition; at 50.0 µM; stronger effect = higher value
Compounds without any hit were thinned out: in the full panel of roughly 79,000, 15% have a hit.
metric.name: growth inhibition (%)

>>> experimental_value("COc1cc([C@@H]2c3cc4c(cc3[C@H](O)[C@H]3COC(=O)[C@@H]23)OCO4)cc(OC)c1OC")
2.55
>>> experimental_value("O=c1[nH]c2cccccc-2c1-c1nc2ccccc2[nH]1")
40.6
>>> experimental_value("CC1(C)CC2=C(Sc3ccccc3N2)C(=O)C1C(=O)C(=O)Nc1cc(Cl)ccc1Cl (stereo not given)")
-1.3
>>> experimental_value("COC(=O)C(=O)C(/C=N/C(=S)Nc1ccc(S(=O)(=O)Nc2nccs2)cc1)=C(\\O)c1c(C)[nH]c2ccccc12")
39.1
>>> experimental_value("CCOCC/C(=N\\Nc1ccc([N+](=O)[O-])cc1[N+](=O)[O-])c1ccccc1")
19.8
>>> experimental_value("COc1cc(=O)cc2n(-c3cc(OC)c(O)c(OC)c3)c3ccccc3nc1-2")
23.6
>>> experimental_value("CCOC(=O)C(C)Oc1ccc(Cl)cc1 (stereo not given)")
-7.85
>>> experimental_value("CC(C)NC(=O)C1CC2C=CC1C2 (stereo not given)")
7.7
>>> experimental_value("COc1cc2c(c3c1c(=O)c1ccccc1n3C)C=CC1(CCCCC1)O2")
-12.4
>>> experimental_value("CCOC(=O)CCC(NC(=O)c1ccc(Nc2nc3ccccc3nc2-c2cccs2)cc1)C(=O)OCC (stereo not given)")
7.1
